The reported measurements were obtained from patent US5932410A.

Tested on: Subtilisin
assay protocol: Esterase assay, subtilisin
Format: biochemical
condition: Z-AX-OMe substrate, X = P1 residue; rates approximately ± 10%
Where a SMILES comes first, the peptide text is derived from it. The star is where a group is joined. Cbz = O=C(OCc1ccccc1)*
observed property: Esterase rate, Subtilisin

{"compound": "COC(=O)[C@H](Cc1ccccc1)NC(=O)[C@H](C)NC(=O)OCc1ccccc1", "assay target": "Subtilisin", "Esterase rate, Subtilisin": "998 A580 change/min./mg protease"}
{"compound": "COC(=O)[C@H](CCC(=O)O)NC(=O)[C@H](C)NC(=O)OCc1ccccc1 [Glu] (Cbz-Ala-Glu-OMe)", "assay target": "Subtilisin", "Esterase rate, Subtilisin": "83 A580 change/min./mg protease"}
{"compound": "COC(=O)[C@H](CCCCN)NC(=O)[C@H](C)NC(=O)OCc1ccccc1 [Lys] (Cbz-Ala-Lys-OMe)", "assay target": "Subtilisin", "Esterase rate, Subtilisin": "153 A580 change/min./mg protease"}
{"compound": "COC(=O)[C@H](CC(C)C)NC(=O)[C@H](C)NC(=O)OCc1ccccc1 [Leu] (Cbz-Ala-Leu-OMe)", "assay target": "Subtilisin", "Esterase rate, Subtilisin": "1329 A580 change/min./mg protease"}
{"compound": "COC(=O)[C@H](C)NC(=O)[C@H](C)NC(=O)OCc1ccccc1 [Ala] (Cbz-Ala-Ala-OMe)", "assay target": "Subtilisin", "Esterase rate, Subtilisin": "1536 A580 change/min./mg protease"}

Let us examine a further case.
Data request: Dear colleague, I am looking for the recorded Esterase rate, Subtilisin of the following compound: COC(=O)[C@H](CCSC)NC(=O)[C@H](C)NC(=O)OCc1ccccc1 [Met] (Cbz-Ala-Met-OMe)
Data returned: 2149 A580 change/min./mg protease

----------
assay target: Proteinase K (Parengyodontium album)
Sequence (P06873 106-384): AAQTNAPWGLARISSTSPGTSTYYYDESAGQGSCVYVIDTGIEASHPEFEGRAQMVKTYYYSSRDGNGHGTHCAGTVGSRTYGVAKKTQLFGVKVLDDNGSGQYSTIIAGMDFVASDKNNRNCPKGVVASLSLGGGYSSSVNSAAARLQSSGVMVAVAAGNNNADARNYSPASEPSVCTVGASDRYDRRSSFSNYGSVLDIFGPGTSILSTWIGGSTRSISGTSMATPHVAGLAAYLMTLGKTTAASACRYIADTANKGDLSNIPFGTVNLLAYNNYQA
assay protocol: Esterase assay, proteinase K
Type: biochemical
condition: Z-AX-OMe substrate; percentage of the maximum activity
Excerpt: Advantage was taken of this activity to develop an "esterase" assay which uses a pH indicator to visualise the hydrogen ion release caused by the action of proteases on peptide-ester substrates. A series of twenty compounds of the form, carbobenzoxy alanyl-X-methyl ester (Z-AX-OMe) were synthesised where "X" is one of the naturally occurring amino acids. […] The reactions were followed visually or quantified using a standard ELISA plate reader. […]
Where a SMILES comes first, the peptide text is derived from it. The star is where a group is joined. Cbz = O=C(OCc1ccccc1)*
Overview of reported % of maximum activity, Proteinase K across a group of compounds:
Kindly answer with a numeric value in %, unit omitted.

In the examples that follow, each entry is paired with its recorded % of maximum activity, Proteinase K.
{"compound": "COC(=O)[C@H](CCC(=O)O)NC(=O)[C@H](C)NC(=O)OCc1ccccc1 [Glu] (Cbz-Ala-Glu-OMe)", "unit symbol": "%", "% of maximum activity, Proteinase K": 12.5}
{"compound": "COC(=O)[C@H](Cc1ccccc1)NC(=O)[C@H](C)NC(=O)OCc1ccccc1", "unit symbol": "%", "% of maximum activity, Proteinase K": 44.1}
{"compound": "COC(=O)[C@H](CC(C)C)NC(=O)[C@H](C)NC(=O)OCc1ccccc1 [Leu] (Cbz-Ala-Leu-OMe)", "unit symbol": "%", "% of maximum activity, Proteinase K": 31.0}

Let us examine a further case.
Data request: Dear colleague, I am looking for the recorded % of maximum activity, Proteinase K of the following compound: COC(=O)[C@H](CCCNC(=N)N)NC(=O)[C@H](C)NC(=O)OCc1ccccc1 [Arg, Z-Ala-Arg-OMe] (Cbz-Ala-Arg-OMe)
Data returned: 3.1

----------
Tested on: Subtilisin
assay protocol: Esterase assay, subtilisin
Assay type: biochemical
condition: Z-AX-OMe substrate; percentage of the maximum activity
Where a SMILES comes first, the peptide text is derived from it. The star is where a group is joined. Cbz = O=C(OCc1ccccc1)*
Everything with % of maximum activity, Subtilisin lower than 10% is criterion not met; everything else, including exactly 10%, is criterion met.

Sample answers from the record:
{"compound": "COC(=O)[C@H](CC(C)C)NC(=O)[C@H](C)NC(=O)OCc1ccccc1 [Leu] (Cbz-Ala-Leu-OMe)", "class": "criterion met"}
{"compound": "COC(=O)[C@H](CCCCN)NC(=O)[C@H](C)NC(=O)OCc1ccccc1 [Lys] (Cbz-Ala-Lys-OMe)", "class": "criterion not met"}
{"compound": "COC(=O)[C@H](CO)NC(=O)[C@H](C)NC(=O)OCc1ccccc1 [Ser] (Cbz-Ala-Ser-OMe)", "class": "criterion met"}
{"compound": "COC(=O)CNC(=O)[C@H](C)NC(=O)OCc1ccccc1 [Gly] (Cbz-Ala-Gly-OMe)", "class": "criterion not met"}
{"compound": "COC(=O)[C@@H](NC(=O)[C@H](C)NC(=O)OCc1ccccc1)C(C)C [Val] (Cbz-Ala-Val-OMe)", "class": "criterion not met"}
{"compound": "COC(=O)[C@@H](NC(=O)[C@H](C)NC(=O)OCc1ccccc1)[C@@H](C)O [Thr] (Cbz-Ala-Thr-OMe)", "class": "criterion not met"}

Data request: Is it the case that COC(=O)[C@H](CS)NC(=O)[C@H](C)NC(=O)OCc1ccccc1 [Cys] (Cbz-Ala-Cys-OMe) has % of maximum activity, Subtilisin reaching or exceeding 10%?
Data returned: criterion met

Data request: Same thing, different compound: COC(=O)[C@H](CC(N)=O)NC(=O)[C@H](C)NC(=O)OCc1ccccc1 [Asn] (Cbz-Ala-Asn-OMe)
Data returned: criterion met

Data request: Same thing, different compound: COC(=O)[C@H](CCSC)NC(=O)[C@H](C)NC(=O)OCc1ccccc1 [Met] (Cbz-Ala-Met-OMe)
Data returned: criterion met

Data request: Same thing, different compound: COC(=O)[C@H](CCC(N)=O)NC(=O)[C@H](C)NC(=O)OCc1ccccc1 [Gln] (Cbz-Ala-Gln-OMe)
Data returned: criterion met

Data request: Same thing, different compound: COC(=O)[C@H](C)NC(=O)[C@H](C)NC(=O)OCc1ccccc1 [Ala] (Cbz-Ala-Ala-OMe)
Data returned: criterion met

Data request: Same thing, different compound: CC[C@H](C)[C@H](NC(=O)[C@H](C)NC(=O)OCc1ccccc1)C(=O)OC [Ile] (Cbz-Ala-Ile-OMe)
Data returned: criterion not met

Data request: Same thing, different compound: COC(=O)[C@H](Cc1cnc[nH]1)NC(=O)[C@H](C)NC(=O)OCc1ccccc1 [His] (Cbz-Ala-His-OMe)
Data returned: criterion met

Data request: Same thing, different compound: COC(=O)[C@H](CCC(=O)O)NC(=O)[C@H](C)NC(=O)OCc1ccccc1 [Glu] (Cbz-Ala-Glu-OMe)
Data returned: criterion not met

Data request: Same thing, different compound: COC(=O)[C@H](Cc1ccc(O)cc1)NC(=O)[C@H](C)NC(=O)OCc1ccccc1 [Tyr, Z-Ala-Tyr-OMe] (Cbz-Ala-Tyr-OMe)
Data returned: criterion met

Data request: Same thing, different compound: COC(=O)[C@H](Cc1ccccc1)NC(=O)[C@H](C)NC(=O)OCc1ccccc1
Data returned: criterion met

Data request: Same thing, different compound: COC(=O)[C@H](CCCNC(=N)N)NC(=O)[C@H](C)NC(=O)OCc1ccccc1 [Arg, Z-Ala-Arg-OMe] (Cbz-Ala-Arg-OMe)
Data returned: criterion not met

----------
Overview of reported % of maximum activity, Trypsin across a group of compounds:
Tested on: Trypsin
assay protocol: Esterase assay, trypsin
Assay type: biochemical
condition: Z-AX-OMe substrate; percentage of the maximum activity
Where a SMILES comes first, the peptide text is derived from it. The star is where a group is joined. Cbz = O=C(OCc1ccccc1)*
Please answer using a numeric value trailed by its unit.

Data request: Dear colleague, I am looking for the recorded % of maximum activity, Trypsin of the following compound: COC(=O)[C@H](CO)NC(=O)[C@H](C)NC(=O)OCc1ccccc1 [Ser] (Cbz-Ala-Ser-OMe)
Data returned: 0%

Data request: Same thing, different compound: COC(=O)[C@H](CCC(N)=O)NC(=O)[C@H](C)NC(=O)OCc1ccccc1 [Gln] (Cbz-Ala-Gln-OMe)
Data returned: 0%

Data request: Same thing, different compound: COC(=O)[C@H](CCSC)NC(=O)[C@H](C)NC(=O)OCc1ccccc1 [Met] (Cbz-Ala-Met-OMe)
Data returned: 0%

Data request: Same thing, different compound: COC(=O)[C@H](Cc1ccccc1)NC(=O)[C@H](C)NC(=O)OCc1ccccc1
Data returned: 0.8%

Data request: Same thing, different compound: COC(=O)[C@H](C)NC(=O)[C@H](C)NC(=O)OCc1ccccc1 [Ala] (Cbz-Ala-Ala-OMe)
Data returned: 0%

Data request: Same thing, different compound: COC(=O)[C@@H]1CCCN1C(=O)[C@H](C)NC(=O)OCc1ccccc1 [Pro] (Cbz-Ala-Pro-OMe)
Data returned: 0%

Data request: Same thing, different compound: COC(=O)[C@H](CS)NC(=O)[C@H](C)NC(=O)OCc1ccccc1 [Cys] (Cbz-Ala-Cys-OMe)
Data returned: 0%

Data request: Same thing, different compound: COC(=O)[C@H](Cc1ccc(O)cc1)NC(=O)[C@H](C)NC(=O)OCc1ccccc1 [Tyr, Z-Ala-Tyr-OMe] (Cbz-Ala-Tyr-OMe)
Data returned: 3.0%
